Values from ChEMBL document CHEMBL1781973

# ASSAY_COMMENT: Half life in fasted Wistar rat at 10 mg/kg, iv
# Type: ADME, organism-based
# Parameters: dose 10 mg/kg, route intravenous
# SETUP_CONDITIONS: in vivo
READOUT_TYPE: half-life (h)
Value expressed in h; do not type the unit.

Entry CCN1CCN(Cc2ccc3c(ccn3S(=O)(=O)c3ccccc3Br)c2)CC1 has what half-life?
2.1

* * *

# ASSAY_COMMENT: Cmax in fasted Wistar rat at 10 mg/kg, iv
# Format: ADME, organism-based
# Set-up: dose 10 mg/kg, route intravenous
# SETUP_CONDITIONS: in vivo
READOUT_TYPE: Cmax (ng/mL)
Value expressed in ng/mL; do not type the unit.

Entry CCN1CCN(Cc2ccc3c(ccn3S(=O)(=O)c3ccccc3Br)c2)CC1 has what Cmax?
716
